# assayed_system: GluA1-GluA2(R)/γ2 (UniProt P19491+P42261, Q607R)
# procedure_text: Whole-cell patch-clamp, co-expression of GluA1 and GluA2
pIC50: −log10 of the molar value.
property_name: pIC50

>>> experimental_value("CC12CC3CC(C)(C1)CC(N)(C3)C2 [memantine, Memantine]")
3.16
